Test: chemical genetic growth profiling, strain panel (AID 1159580);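 also: tested at 20 µM; growth read once vehicle control cultures reached saturation at 30 °C; 1 = growth at the plate median or of vehicle wells; lower values mean less growth of the strain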
Conditions: S. cerevisiae deletion strains, growth OD, locus YJR075W, strain HOC1, active compounds read low
About 2,000 (36%) of roughly 5,500 compounds were called active. About 18% were inconclusive and are not listed. This is one part of the list.

MOLECULE	normalized growth
COP(=S)(OC)SCn1nnc2ccccc2c1=O	0.975
O=C(NCCNc1ccc(C(F)(F)F)cc1[N+](=O)[O-])c1cccs1	0.998
CNC(=O)CSP(=S)(OC)OC	1.02
CCOC(=N)c1ccc(F)c(Cl)c1	1.01
CC1=CC(C)(C)NC(=S)N1	1.01
COc1ccc(Cc2nccc3cc(OC)c(OC)cc23)cc1OC	0.995
C/C=C(\C)C(=O)OC1[C@@H]2C=C3C4CC(=O)O[C@@H](c5ccoc5)[C@]4(C)CCC3[C@@](C)(C2=O)[C@@H](C(O)C(=O)OC)C1(C)C (some centres undefined)	1.02
O=C(O)C12CC3CC(CC(Br)(C3)C1)C2	0.996
C[C@]12CCC3c4ccc(O)cc4CCC3C1CC[C@@H]2OC(=O)CCC1CCCC1 (some centres undefined)	0.988
COc1cc(OC)cc(OC)c1	1
CC(C)(C)c1ccc(C(=O)N/N=C\c2cc(Cl)cc(Cl)c2O)cc1	0.996
CC(C(=O)O)c1ccc(CC2CCCC2=O)cc1 (centres undefined)	1.01
FC(F)(F)c1cc(NC2=NCCN=C(Nc3cc(C(F)(F)F)cc(C(F)(F)F)c3)SS2)cc(C(F)(F)F)c1	0.989
COc1cccc(CC(=O)NN)c1	0.991

---

Experiment: chemical genetic growth profiling, strain panel (AID 1159580)
Conditions: S. cerevisiae deletion strains, growth OD, locus YKR091W, strain srl3, active compounds read low
About 2,000 (36%) of roughly 5,500 compounds were called active. Not shown: some 18% with an inconclusive outcome. The list shows a part of the results.
normalized growth: recorded values
OUTCOME_MEASURE: normalized growth

                                    compound  assay_result
 0  CC(C(=O)O)c1ccc(N2Cc3ccccc3C2=O)cc1 (configuration not stated)         0.983
 1  CC(C)(O)CC[C@@H](O)[C@](C)(O)C1CC[C@@]2(O)C3=CC(=O)C4C[C@@H](O)[C@@H](O)C[C@]4(C)C3CC[C@]12C (some centres not stated)         0.997
 2     CCCCCN=C(N)N/N=C\c1c[nH]c2ccc(OC)cc12         0.992
 3  CSCCC(NC=O)C(=O)NC(CC(C)C)C(=O)NC(Cc1ccccc1)C(=O)O (configuration not stated)          1.01
 4                       COc1cc(O)c(C)c(O)c1          1.01
 5  C[N+]1(C)C2CC[C@H]1CC(OC(=O)C(O)c1ccccc1)C2 (some centres not stated)         0.997
 6              CC(C)=CCOc1cc2oc(=O)ccc2cc1O          0.96
 7  Nc1ncnc2c1ncn2[C@@H]1O[C@H](CO)[C@@H](O)[C@@H]1O          1.01
 8  Cc1c(N(C)CS(=O)(=O)O)c(=O)n(-c2ccccc2)n1C          1.01
 9  OCCN1CCN(CCCN2c3ccccc3Sc3ccc(Cl)cc32)CC1             1
10  CN1Cc2c(N)cccc2C(c2ccccc2)C1 (configuration not stated)             1
11                COc1cc2ccc(=O)oc2c(OC)c1OC         0.964
12  CC(=O)Oc1ccc2c(c1)CCC1C2CCC2(C)C1CC(OC(C)=O)C2OC(C)=O (configuration not stated)         0.988
13                  COc1cc(O)c(C(=O)O)c(O)c1         0.991
14  CCCCC(=O)O[C@H]1CCC2C3CCc4cc(O)ccc4C3CC[C@@]21C (some centres not stated)          1.01
15  CCC(=O)O[C@H]1CCC2C3CCc4cc(O)ccc4C3CC[C@@]21C (some centres not stated)         0.964
16     O=c1c(-c2ccc3c(c2)OCO3)coc2cc(O)ccc12         0.998

---

Assay: chemical genetic growth profiling, strain panel (AID 1159580)
Conditions: S. cerevisiae deletion strains, growth OD, locus YIL125W, strain kgd1, active compounds read low
About 2,000 (36%) of roughly 5,500 compounds were called active. Not shown: some 18% with an inconclusive outcome. The list shows a part of the results.
OUTCOME_MEASURE: normalized growth

In [3]: df
Out[3]:
                                   molecule  assay_result
0             COP(=S)(OC)SCn1nnc2ccccc2c1=O         0.979
1  C[C@]12C=CC(=O)C=C1CCC1C2CC[C@]2(C)C(=O)CCC12 (stereo not given in full)         0.975
2             COc1ccc2c(c1)[nH]c1c(C)nccc12         0.986
3  CC(C)(O)CC[C@@H](O)[C@](C)(O)C1CC[C@@]2(O)C3=CC(=O)C4C[C@@H](O)[C@@H](O)C[C@]4(C)C3CC[C@]12C (stereo not given in full)             1
4       Cc1cccc(N(C)C(=S)Oc2ccc3ccccc3c2)c1         0.981

---

normalized growth: recorded values
Assay: chemical genetic growth profiling, strain panel (AID 1159580);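 also: tested at 20 µM; growth read once vehicle control cultures reached saturation at 30 °C; 1 = growth at the plate median or of vehicle wells; lower values mean less growth of the strain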
Conditions: S. cerevisiae deletion strains, growth OD, locus YJL187C, strain SWE1 (second series), active compounds read low
Hit rate of the full screen: of about 5,500 compounds, about 2,000 (36%) were called active. Roughly 18% stayed inconclusive and do not appear here. This is one part of the list.

COMPOUND	normalized growth
COc1ccc2[nH]cc(CCNC(C)=O)c2c1	1.01 (inactive)
O=c1c(-c2ccc3c(c2)OCO3)coc2cc(O)ccc12	1 (inactive)
CCOc1nc2cccc(C(=O)OC(C)OC(=O)OC3CCCCC3)c2n1Cc1ccc(-c2ccccc2-c2nn[nH]n2)cc1 (stereo not drawn)	0.997 (inactive)
O=[N+]([O-])/N=C1/NCCN1Cc1ccc(Cl)cc1	0.985 (inactive)
CCCCC(=O)N(Cc1ccc(-c2ccccc2-c2nn[nH]n2)cc1)[C@H](C(=O)O)C(C)C	0.983 (inactive)
C/C=C(\C)C(=O)OC1[C@@H]2C=C3C4CC(=O)O[C@@H](c5ccoc5)[C@]4(C)CCC3[C@@](C)(C2=O)[C@@H](C(O)C(=O)OC)C1(C)C (stereo partly drawn)	1.02 (inactive)
CC(C)=CCc1c(O)cc2occ(-c3ccc4c(c3)OCO4)c(=O)c2c1O	1.01 (inactive)
O=c1[nH]cnc2nc[nH]c12	1.01 (inactive)

---

normalized growth: recorded values
Assay: chemical genetic growth profiling, strain panel (AID 1159580);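 also: tested at 20 µM; growth read once vehicle control cultures reached saturation at 30 °C; 1 = growth at the plate median or of vehicle wells; lower values mean less growth of the strain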
Details: S. cerevisiae deletion strains, growth OD, locus YGL253W, strain hxk2, active compounds read low
About 2,000 (36%) of roughly 5,500 compounds were called active. Roughly 18% stayed inconclusive and do not appear here. This is one part of the list.

MOLECULE	normalized growth
O=c1n(CCCN2CCN(c3cccc(Cl)c3)CC2)nc2ccccn12	0.999
CC(=O)O[C@H]1CC2CCC3C(CC[C@@]4(C)C3C[C@H]([N+]3(C)CCCCC3)[C@@H]4OC(C)=O)[C@@]2(C)C[C@@H]1[N+]1(C)CCCCC1 (stereo partly drawn)	1.02
COc1ccc2c(=O)c(CC(=O)O)coc2c1	0.961

---

Experiment: chemical genetic growth profiling, strain panel (AID 1159580);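 also: tested at 20 µM; growth read once vehicle control cultures reached saturation at 30 °C; 1 = growth at the plate median or of vehicle wells; lower values mean less growth of the strain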
Conditions: S. cerevisiae deletion strains, growth OD, locus YPR163C, strain tif3, active compounds read low
Out of some 5,500 compounds screened, about 2,000 (36%) were called active. Roughly 18% stayed inconclusive and do not appear here. Some of the results follow.
OUTCOME_MEASURE: normalized growth

COMPOUND	ASSAY_RESULT
COC(=O)C[C@H]1C(C)(C)C(OC(C)=O)[C@]2(O)C=C3C4CC(=O)O[C@@H](c5ccoc5)[C@]4(C)CCC3[C@@]1(C)C2=O (some centres undefined)	1.01
Cn1c([N+](=O)[O-])cnc1COC(N)=O	0.99
COc1ccc2[nH]cc(CCNC(C)=O)c2c1	1.02
CN1CCN(CCCN2c3ccccc3Sc3ccc(Cl)cc32)CC1	0.148
CC(C)CCCC(C)C1CCC2C3CCC4CC(=O)CCC4(C)C3CCC12C (centres undefined)	1.03
Cc1ncc([N+](=O)[O-])n1CCO	0.987
CSCCC(NC=O)C(=O)NC(CC(C)C)C(=O)NC(Cc1ccccc1)C(=O)O (centres undefined)	1
C/C=C(\C)C(=O)OC1[C@@H]2C=C3C4CC(=O)O[C@@H](c5ccoc5)[C@]4(C)CCC3[C@@](C)(C2=O)[C@@H](C(O)C(=O)OC)C1(C)C (some centres undefined)	1.01
CC(C)=CCc1c(O)cc2occ(-c3ccc4c(c3)OCO4)c(=O)c2c1O	1.02
CC(C)(O)CC[C@@H](O)[C@](C)(O)C1CC[C@@]2(O)C3=CC(=O)C4C[C@@H](O)[C@@H](O)C[C@]4(C)C3CC[C@]12C (some centres undefined)	1
COC(=O)C[C@H]1C(C)(C)[C@@H](OC(C)=O)[C@@H]2CC3C4CC(=O)O[C@@H](c5ccoc5)[C@]4(C)CCC3[C@@]1(C)C2=O (some centres undefined)	1.03
NCCS	1.02
Cc1cc(C)nc(NS(=O)(=O)c2ccc(N)cc2)n1	0.981
COc1cc(OC)c(-c2c(OC)cc(OC)cc2OC)c(OC)c1	1.03
